The values you see were collected from ChEMBL document CHEMBL3616399.

Please respond with reported MIC for every item in the list.
system: Candida albicans; assay: Antifungal activity against Candida albicans Y0109 after 24 hrs by serial dilution method; assay type: functional; conditions: Y0109, 24 h
Give bare numbers, in µg/mL.

1. C[C@@H](N1CCc2cc(-c3cncnc3)sc2C1)[C@](O)(Cn1cncn1)c1ccc(F)cc1F	0.125
2. C[C@@H](N1Cc2cc(-c3ccc(Cl)cc3)sc2C1=O)[C@](O)(Cn1cncn1)c1ccc(F)cc1F	0.0156
3. COc1ccc(-c2cc3c(s2)C(=O)N([C@H](C)[C@](O)(Cn2cncn2)c2ccc(F)cc2F)C3)cc1	0.0156
4. COc1ncc(-c2cc3c(s2)C(=O)N([C@H](C)[C@](O)(Cn2cncn2)c2ccc(F)cc2F)C3)cn1	0.0625
5. C[C@@H](N1Cc2cc(-c3cccnc3)sc2C1=O)[C@](O)(Cn1cncn1)c1ccc(F)cc1F	0.0156
6. C[C@@H](N1Cc2sc(-c3cccnc3)cc2C1=O)[C@](O)(Cn1cncn1)c1ccc(F)cc1F	0.0156

List MIC for every entry below, keeping the order given.
1. C[C@@H](N1Cc2cc(-c3cncc(F)c3)sc2C1=O)[C@](O)(Cn1cncn1)c1ccc(F)cc1F
2. C[C@@H](N1Cc2sc(-c3ccncc3)cc2C1=O)[C@](O)(Cn1cncn1)c1ccc(F)cc1F

Output line:
1. 0.0312
2. 0.0156

---

test system: Candida albicans; experiment: Antifungal activity against Candida albicans Y0109 after 24 hrs by serial dilution method; type: functional; conditions: Y0109, 24 h
reportedEndpoint: MIC (µg/mL)
Give bare numbers, in µg/mL.

1. C[C@@H](N1Cc2cc(-c3cncnc3)sc2C1=O)[C@](O)(Cn1cncn1)c1ccc(F)cc1F	0.0156

List MIC for every entry below, keeping the order given.
1. C[C@@H](N1Cc2sc(-c3ccccc3)cc2C1=O)[C@](O)(Cn1cncn1)c1ccc(F)cc1F
2. Cc1ccc(-c2cc3c(s2)C(=O)N([C@H](C)[C@](O)(Cn2cncn2)c2ccc(F)cc2F)C3)cc1
3. C[C@@H](N1Cc2sc(-c3cncnc3)cc2C1=O)[C@](O)(Cn1cncn1)c1ccc(F)cc1F

Output line:
1: 0.0312; 2: 0.0312; 3: 0.0156

---

system: Liver microsome; assay: Intrinsic clearance in human liver microsomes assessed per mg of protein at 0.1 uM measured up to 60 mins by MS analysis; conditions: 1 h
reportedEndpoint: CLH (µL/min/mg)
One number for each entry, in µL/min/mg.

For reference, reported CLH for C[C@@H](N1Cc2cc(Br)sc2C1=O)[C@](O)(Cn1cncn1)c1ccc(F)cc1F stands at 5

---

tested on: Aspergillus fumigatus; experiment: Antifungal activity against Aspergillus fumigatus 7544 after 48 hrs by serial dilution method; format: functional; details: Aspergillus fumigatus, 7544, 48 h
Please respond with reported MIC for every item in the list.
One number for each entry, in µg/mL.

1. C[C@@H](n1cnc2cc(Cl)ccc2c1=O)[C@](O)(Cn1cncn1)c1ccc(F)cc1F [ALBACONAZOLE]	0.25
2. C[C@@H](N1Cc2sc(-c3ccc(C#N)nc3)cc2C1=O)[C@](O)(Cn1cncn1)c1ccc(F)cc1F	32
3. C[C@@H](N1Cc2cc(-c3ccc(C#N)nc3)sc2C1=O)[C@](O)(Cn1cncn1)c1ccc(F)cc1F	8
4. C[C@@H](N1CCc2cc(-c3cncnc3)sc2C1)[C@](O)(Cn1cncn1)c1ccc(F)cc1F	32
5. C[C@@H](N1Cc2cc(-c3cncc(F)c3)sc2C1=O)[C@](O)(Cn1cncn1)c1ccc(F)cc1F	4
6. C[C@@H](N1Cc2cc(-c3cccc(F)c3)sc2C1=O)[C@](O)(Cn1cncn1)c1ccc(F)cc1F	4
7. C[C@@H](N1CCn2nc(-c3ccc(C#N)nc3)nc2C1)[C@](O)(Cn1cncn1)c1ccc(F)cc1F	2
8. COc1ncc(-c2cc3c(s2)C(=O)N([C@H](C)[C@](O)(Cn2cncn2)c2ccc(F)cc2F)C3)cn1	4

List MIC for every entry below, keeping the order given.
1. COc1ccc(-c2cc3c(s2)C(=O)N([C@H](C)[C@](O)(Cn2cncn2)c2ccc(F)cc2F)C3)cc1
2. C[C@@H](N1Cc2cc(-c3cncc(C#N)c3)sc2C1=O)[C@](O)(Cn1cncn1)c1ccc(F)cc1F
3. C[C@@H](N1Cc2cc(-c3cccnc3)sc2C1=O)[C@](O)(Cn1cncn1)c1ccc(F)cc1F
4. C[C@@H](N1Cc2cc(-c3ccc(Cl)cc3)sc2C1=O)[C@](O)(Cn1cncn1)c1ccc(F)cc1F
5. C[C@@H](N1Cc2cc(-c3ccc(C#N)cc3)sc2C1=O)[C@](O)(Cn1cncn1)c1ccc(F)cc1F

Output line:
[4, 4, 4, 8, 4]

List MIC for every entry below, keeping the order given.
1. Cc1ccc(-c2cc3c(s2)C(=O)N([C@H](C)[C@](O)(Cn2cncn2)c2ccc(F)cc2F)C3)cc1
2. C[C@@H](N1Cc2sc(-c3cccnc3)cc2C1=O)[C@](O)(Cn1cncn1)c1ccc(F)cc1F

Output line:
4
16
